# target.or.system: SARS-CoV-2 nsp3-mac1 (Severe acute respiratory syndrome coronavirus 2, UniProt P0DTD1)
# assay.explanation: biochemical
# details: TR-FRET dose response, supplement; read-out: ic50

compound	IC50
O=C(c1cccc(Br)c1)N1CCC(c2ccn3ncc(C(=O)N4CCCCC4)c3c2)CC1	> 124 µM
O=C(Nc1ccccc1)Nc1ccc(C(=O)NC2c3cccc(O)c3CC2C(=O)O)cc1 (centres unmarked)	1.02 µM
O=C(NCc1cc2n(n1)CCCC2)c1cc2cncnc2[nH]1	> 124 µM
O=C(OCc1cccc(Cl)n1)c1ncnc2[nH]ccc12	> 124 µM
OC[C@@H](Nc1ncnc2[nH]c(I)cc12)c1ccccc1	> 124 µM

* * *

# System: iPSC pneumocytes
# assay.explanation: iPSC pneumocytes cytotoxicity
# Assay type: cell-based
# details: highest measured response of the dose series
# Text: Supplement media-1.zip/Cytotoxicity.csv, table | column: cc10; cc50; perc_min_measured; perc_max_measured
Reported perc_max_measured is given for each of the following compounds.

compound	perc_max_measured (%)
CC(C)[C@H](Nc1ncnc2[nH]c(-c3cnn(CC(N)=O)c3)cc12)c1ccc2c(c1)S(=O)(=O)CCC2 (single isomer, unassigned) [ASAP-0011428]	106.229
CC(C)C(Nc1ncnc2[nH]c(C(=O)NC3CCN(C)C3)cc12)c1ccc2c(c1)S(=O)(=O)CCC2 (centres unmarked) [ASAP-0011198]	99.57
CNCc1cc(-c2cc3c(N[C@@H](c4ccc5c(c4)S(=O)(=O)NCC5)C(C)C)ncnc3[nH]2)co1 [ASAP-0011243]	101.3
CNCc1cc(-c2cc3c(N[C@@H](c4ccc5c(c4)S(=O)(=O)CCC5)C(C)C)ncnc3[nH]2)co1 [ASAP-0011176]	97.309
CC(C)(C)[C@@H](Nc1ncnc2[nH]c(-c3cnn(CC(N)=O)c3)cc12)c1ccc2c(n1)OCCO2 [ASAP-0011162]	104.975
CNC(=O)Cn1cc(-c2cc3c(N[C@H](c4ccc5c(c4)S(=O)(=O)CCC5)C(C)C)ncnc3[nH]2)cn1 (single isomer, unassigned) [ASAP-0011171]	98.842
CC(C)[C@@H](Nc1ncnc2[nH]c(C(=O)N[C@H]3CCN(C)C3)cc12)c1ccc2c(c1)S(=O)(=O)CCC2 (single isomer, unassigned) [ASAP-0012336]	106.87
CNC(=O)c1c[nH]c2ncnc(N[C@H](c3ccc4c(c3)S(=O)(=O)CCC4)C(C)C)c12 (single isomer, unassigned) [ASAP-0011153]	111.957
CC(C)[C@@H](Nc1ncnc2[nH]c(-c3cnn(CC(N)=O)c3)cc12)c1ccc2c(n1)OCCO2 (single isomer, unassigned) [ASAP-0012315]	105.354
CC(C)[C@@H](Nc1ncnc2[nH]c(-c3cnn(C)c3C#N)cc12)c1ccc2c(c1)S(=O)(=O)CCC2 (single isomer, unassigned) [ASAP-0011147]	111.987
CC(C)[C@@H](Nc1ncnc2[nH]c(-c3cnn(C)c3)cc12)c1ccc2c(c1)S(=O)(=O)CCC2 (single isomer, unassigned) [ASAP-0012329]	108.573

* * *

# assay.explanation: Permeability Papp (AB) MDR1/MDCKII
# details: In vitro MDR1-MDCKII permeability, A to B, no inhibitor
Kindly return criterion met if reported papp_a_to_b_mean is no lower than 0.5 ×10⁻⁶ cm/s; return criterion not met if it is lower.

molecule	discrete.label
CC(C)[C@@H](Nc1ncnc2[nH]c(-c3cnn(C)c3C#N)cc12)c1ccc2c(c1)S(=O)(=O)CCC2 (single isomer, unassigned) [ASAP-0011147]	criterion not met
CC(C)[C@@H](Nc1ncnc2[nH]c(-c3cnn(CC(=O)N(C)C)c3)cc12)c1ccc2c(c1)S(=O)(=O)CCC2 [ASAP-0013747]	criterion met
CC(C)C(Nc1ncnc2[nH]c(C(=O)NC3CCN(C)C3)cc12)c1ccc2c(c1)S(=O)(=O)CCC2 (stereo not shown) [ASAP-0011198]	criterion not met
CNC(=O)c1cc2c(N[C@H](c3ccc4c(c3)S(=O)(=O)CCC4)C(C)C)ncnc2[nH]1 (single isomer, unassigned) [ASAP-0012340]	criterion met
Cn1ncc(-c2cc3c(N[C@@H](c4ccc5c(n4)OCCO5)C(C)(C)C)ncnc3[nH]2)c1C#N [ASAP-0011221]	criterion met
CC(C)[C@@H](Nc1ncnc2[nH]c(-c3ccc4cncn4c3)cc12)c1ccc2c(c1)S(=O)(=O)CCC2 [ASAP-0011215]	criterion met

* * *

# target.or.system: alpha1A (h) (Homo sapiens)
# Construct: purchased Eurofins Cerep (SafetyScreen44), recognised from the panel format
# Sequence (P35348 1-466): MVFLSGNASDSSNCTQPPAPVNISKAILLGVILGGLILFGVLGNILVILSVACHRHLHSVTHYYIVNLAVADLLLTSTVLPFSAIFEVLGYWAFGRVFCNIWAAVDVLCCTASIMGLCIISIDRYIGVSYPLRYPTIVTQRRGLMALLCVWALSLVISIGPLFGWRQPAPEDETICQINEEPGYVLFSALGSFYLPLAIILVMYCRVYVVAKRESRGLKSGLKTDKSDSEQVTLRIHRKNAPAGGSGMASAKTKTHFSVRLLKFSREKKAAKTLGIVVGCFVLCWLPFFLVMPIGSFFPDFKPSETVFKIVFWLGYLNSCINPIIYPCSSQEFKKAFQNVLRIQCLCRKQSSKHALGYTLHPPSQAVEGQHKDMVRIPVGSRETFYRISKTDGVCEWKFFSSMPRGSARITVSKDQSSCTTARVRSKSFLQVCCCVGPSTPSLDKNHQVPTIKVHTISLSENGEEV
# assay.explanation: In vitro CEREP profiling, alpha1A (h) (antagonist radioligand)
# Assay type: binding
# details: test compound 10 uM
Listing: perc_inhibition (% inhibition of the binding of a ligand specific for each target) of selected compounds
parameter.measured: perc_inhibition (% inhibition of the binding of a ligand specific for each target)

COc1ccc([C@H](Cc2nnn[nH]2)NC(=O)c2ncnc3[nH]ccc23)cc1 -7%
Cn1ncc(-c2cc3c(N[C@@H](c4ccc5c(n4)OCCO5)C(C)(C)C)ncnc3[nH]2)c1C#N 54%
CC(C)[C@H](Nc1ncnc2[nH]c(-c3cnn(C)c3C#N)cc12)c1ccc2c(n1)OCCO2 34%
CC(C)[C@@H](Nc1ncnc2[nH]c(-c3cnn(C)c3C#N)cc12)c1ccc2c(n1)OCCO2 11%
CC(C)[C@H](Nc1ncnc2[nH]ccc12)c1ccc2c(c1)S(=O)(=O)CCC2 -2%
C[C@H](C(=O)O)[C@@H](NC(=O)c1ncnc2[nH]ccc12)c1ccc(Br)cc1 -8%
CNCc1cc(-c2cc3c(N[C@@H](c4ccc5c(c4)S(=O)(=O)CCC5)C(C)C)ncnc3[nH]2)co1 50%

* * *

The compounds listed here are annotated with their fu.
# assay.explanation: Protein binding
# Format: in vitro ADME
# details: In vitro rat plasma protein binding

compound	fu
COc1ccc([C@H](Cc2nnn[nH]2)NC(=O)c2ncnc3[nH]ccc23)cc1 [ASAP-0015381]	0.047
CC(C)[C@@H](Nc1ncnc2[nH]c(-c3cnn(C)c3C#N)cc12)c1ccc2c(n1)OCCO2 [ASAP-0010716]	0.022
CC(C)[C@H](Nc1ncnc2[nH]ccc12)c1ccc2c(c1)S(=O)(=O)CCC2 [ASAP-0008674]	0.189
CC(C)C(Nc1ncnc2[nH]c(C(=O)NC3CCN(C)C3)cc12)c1ccc2c(c1)S(=O)(=O)CCC2 (centres unmarked) [ASAP-0011198]	0.164
CNCc1cc(-c2cc3c(N[C@@H](c4ccc5c(c4)S(=O)(=O)CCC5)C(C)C)ncnc3[nH]2)co1 [ASAP-0011176]	0.072
CC(C)[C@H](Nc1ncnc2[nH]c(-c3cnn(C)c3C#N)cc12)c1ccc2c(n1)OCCO2 [ASAP-0010715]	0.02
C[C@H](C(=O)O)[C@@H](NC(=O)c1ncnc2[nH]ccc12)c1ccc(Br)cc1 [ASAP-0014722]	0.044
Cn1ncc(-c2cc3c(N[C@@H](c4ccc5c(n4)OCCO5)C(C)(C)C)ncnc3[nH]2)c1C#N [ASAP-0011221]	0.018

* * *

# Test system: HeLa-ACE2 cells
# details: HeLa-ACE2 cytotoxicity; highest measured response of the dose series
Measured perc_max_measured by item

molecule	unit.string	perc_max_measured
CC(C)[C@H](Nc1ncnc2[nH]c(-c3cnn(C)c3C#N)cc12)c1ccc2c(c1)S(=O)(=O)CCC2 (single isomer, unassigned) [ASAP-0011144]	%	100.779
CCNC(=O)c1cc2c(N[C@H](c3ccc4c(c3)OCCO4)C(C)C)ncnc2[nH]1 (single isomer, unassigned) [ASAP-0013827]	%	106.128
COc1ccc([C@@H](Cc2nnn[nH]2)NC(=O)c2ncnc3[nH]ccc23)cc1 [ASAP-0015384]	%	99.805
CC(C)[C@@H](Nc1ncnc2[nH]c(-c3cnn(CC(=O)N(C)C)c3)cc12)c1ccc2c(c1)S(=O)(=O)CCC2 (racemic) [ASAP-0008668]	%	99.837
CC(C)[C@@H](Nc1ncnc2[nH]c(-c3cnn(C)c3C#N)cc12)c1ccc2c(n1)NC(=O)CO2 (single isomer, unassigned) [ASAP-0011180]	%	104.887
CC(C)C(Nc1ncnc2[nH]c(C(=O)NC3CCN(C)C3)cc12)c1ccc2c(c1)S(=O)(=O)CCC2 (stereo not drawn) [ASAP-0011198]	%	148.177
